All values here come from PubChem BioAssay (NCI).

Exercise: state measured TGI for each of the molecules provided.
System: UO-31 renal
procedure.text: NCI tumour cell line growth inhibition, 48 h

Inquiry: Endpoint output: TGI of O=C(CCCN1CCC(Nc2ccc(F)cc2)(c2nnnn2C2CCCCC2)CC1)c1ccc(F)cc1 . Value?
Reply text: 28.4 µM

Inquiry: Record: Cc1ccc(S(=O)(=O)N/N=C2/C3CC4CCC2C4C3)cc1 (stereo unspecified)
Reply text: > 100 µM

Inquiry: Record: O=C1OC(=O)C2C1C1(c3ccccc3)OC2(c2ccccc2)c2c(Br)c(Br)c(Br)c(Br)c21 (stereo unspecified)
Reply text: > 100 µM

Inquiry: Record: O=C(CN1CCOCC1)c1ccc2c(c1)oc(=O)n2CCN1CCCCC1
Reply text: > 100 µM

Inquiry: Record: Nc1nc(N)c(N=Nc2ccc([As](=O)(O)O)c(O)c2)c(N)n1
Reply text: > 100 µM

Inquiry: Record: O=c1[nH]nc(-c2ccccc2)c2[nH]c3c(c12)CCCc1ccccc1-3
Reply text: 34.7 µM

Inquiry: Record: COC(=O)C1=CCS(=O)(=O)C1
Reply text: > 100 µM

Inquiry: Record: COC(=O)Cc1c(-c2c(CC(=O)OC)c3ccccc3n2C2OC(COC3OC(COC(C)=O)C(OC(C)=O)C(OC(C)=O)C3OC(C)=O)C(O)C(O)C2O)[nH]c2ccccc12 (stereo unspecified)
Reply text: > 100 µM

Inquiry: Record: CCn1cc(C(=O)O)c(=O)c2cc(F)c(N3CCNCC3)nc21
Reply text: > 100 µM

Inquiry: Record: COC(=O)C1=C(C(=O)OC)C2CCC1CC2=O (stereo unspecified)
Reply text: > 100 µM

Inquiry: Record: O=C(NCCOCCO)c1ccc(O)cc1
Reply text: > 100 µM
